Can you tell me Reactivity (OD 492 nm) for the items I'm about to list?
Biological target: T1, HCV bt-141-161 (Peptide 2, HCVc 141-161) (Hepatitis C virus (numbering per HCV-1), biotin (carboxy-terminal per; N-terminal per))
T1 peptide: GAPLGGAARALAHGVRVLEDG
Assay: EIA, captured mAb + biotin peptide
The reply must contain the numeric value and, after it, the unit.

Record request: Reactivity (OD 492 nm) value, item HCV 208B-251 (antibody, V domains shown) VH: QLQQSGPVLVKPGASVKISCKTSGYTFTENAMHWVKQSHGKSLEWIGGVNPNNGDTIYNQKFKGKATLTVDKSSSTAFMELRSLTSEESPVYFCVRRELDFFDYWGQGTSVTVSS VL: DIVLTQSPASLAVSLGKKATISCRASQSVSTSRYSYMHWYQQKPGHPPKLLIKYASNLESGVPARFSGSGSGTDFTLNIHPVAEEDTAAYYCQHSWEFPFTFGSGTKLEIKR
2.35 OD units

Ok, now HCV 208B-1024 (antibody, V domains shown) VH: EVQLVESGGDLVKPGGSLKLSCAASGFTFSNYGMSWVRQTPDKRLEWVATISSGGSYSYYPDSVKGRFTISRDNAKNILYLQMSSLKSEDTAMYYCASLYYGYGDYWGQGTAFTVSS VL: DVLMTQTPLSLPVSLGDQASISCRSSQSIVHSNGNTYLEWYLQKLGQSPKLLIYRVSNRFSGVPDRFSGSGSGTDFTLKISRVEAEDLGVYYCFQGSHVPWTFGGGTKLEIKR
0.75 OD units

Origin of the recorded values: patent US20170052184A1
